Quick reference for % Max blocking at 11nM mAb among some binders
# target_desc: T1, human sortilin on the cell surface (recombinant huSortilin on HEK 293 cells; endogenous on U251MG cells) (human, UniProt Q99523 78-831)
# T1 construct: whole, on cells; also called huSortilin expressing HEK293 cells; cell surface huSortilin
# T1 sequence (looked up): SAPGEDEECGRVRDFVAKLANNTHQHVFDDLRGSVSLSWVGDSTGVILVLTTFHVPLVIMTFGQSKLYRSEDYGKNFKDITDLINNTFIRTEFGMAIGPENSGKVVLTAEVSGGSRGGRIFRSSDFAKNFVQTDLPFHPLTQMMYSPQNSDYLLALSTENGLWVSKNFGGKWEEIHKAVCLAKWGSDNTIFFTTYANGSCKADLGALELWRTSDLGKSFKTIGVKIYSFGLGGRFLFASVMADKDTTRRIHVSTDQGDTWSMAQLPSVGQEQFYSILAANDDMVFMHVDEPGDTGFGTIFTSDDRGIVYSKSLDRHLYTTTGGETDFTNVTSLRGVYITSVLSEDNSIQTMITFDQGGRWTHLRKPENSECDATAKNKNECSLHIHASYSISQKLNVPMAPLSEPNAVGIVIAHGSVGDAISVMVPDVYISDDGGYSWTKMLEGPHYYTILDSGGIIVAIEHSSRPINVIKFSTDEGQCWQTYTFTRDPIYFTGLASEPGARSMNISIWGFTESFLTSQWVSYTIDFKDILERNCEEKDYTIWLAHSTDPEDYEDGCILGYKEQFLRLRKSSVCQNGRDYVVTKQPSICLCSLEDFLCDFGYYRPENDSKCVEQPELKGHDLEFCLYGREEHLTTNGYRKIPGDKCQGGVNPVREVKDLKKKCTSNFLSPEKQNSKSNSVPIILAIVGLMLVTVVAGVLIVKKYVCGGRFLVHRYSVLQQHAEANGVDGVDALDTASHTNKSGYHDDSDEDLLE
# assay_remarks: cell-based blocking titration (flow cytometry), huSortilin HEK293 cells; blocked ligand 30 nM huPGRN-Biotin
endpoint: % Max blocking at 11nM mAb (%)

binder="mouse monoclonal antibody 2F18 (antibody, mouse IgG1, V domains shown, mouse IgG1, kappa) VH: EVQLVESGGDLVKPGGSLKLSCAASGFTFNIYGMSWVRQTPDKRLEWVATISTGGIYTYYPDSVKGRFTISRDNAKNTLYLQMSSLKSEDTAMYYCARHPVGALDYWGQGTSVTVSS VL: DIQVTQSPASLSVSVGETVTITCRASENIYSNLAWYQQKQGKSPHLLVYTATTLADGVPSRFSGSGSGTQYSLKINSLQSEDFGSYYCQHFWGTPPWTFGGGTKLEIK" endpoint="% Max blocking at 11nM mAb" meas_value=41
binder="mouse monoclonal antibody 2P22 (antibody, mouse IgG2b, V domains shown, mouse IgG2b, kappa) VH: EVQLVESGGDLVKPGGSLKLSCAASGFTFSIYGMSWVRQTPDKKLEWVAAISSGGIYTYYPDSVKGRFTISRDNAKNTLYLQMSSLKSADTAMYYCTRNDYDWFAYWGQGTLVTVSA VL: DIQMTQSPSSLSASLGERVSLTCRASQDIGSSLNWLQQEPDGTIKRLIYATSSLDSGVPKRFSGSRSGSDYSLTISSLESEDFVDYYCLQYASSPYTFGGGTKLEIK" endpoint="% Max blocking at 11nM mAb" meas_value=40
binder="mouse monoclonal antibody 5E20 (antibody, mouse IgG1, V domains shown, mouse IgG1, kappa; also called ms5E20; ms5E20new) VH: EVQLVESGGDLVKPGGSLKLSCAAPGFTFSTYGMSWVRQTPDKRLEWVAIISSGGSYTYYSDTVKGRFTISRDNAKNTLYLQMSSLKSEDTAMYYCSRSSSHWYFDVWGTGTTVTVSS VL: DILMTQSPSSMSVSLGDTVSITCHASQGISSNIGWLQQKPGKSFKGLIYHGTNLKDGVPSRFSGSGSGADFSLTISSLESEDFADYFCVQYAQFPYTFGGGTKLEKR" endpoint="% Max blocking at 11nM mAb" meas_value=54
binder="mouse monoclonal antibody 11M14 (antibody, mouse IgG1, V domains shown, mouse IgG1, kappa; also called ms11M14) VH: EVQLVESGGDLVKPGGSLKLSCAASGFTFNIYGMSWVRQTPDKRLEWVATISSGGIYTYYPDILKGRFTISRDNAKNTLYLQMSSLKSEDTAMYYCARHPGGAMDYWGQGTSVTVSS VL: DIQMTQSPASLSVSVGETVTITCRVSENIYSNLAWYQQKQGKSPHLLVYAATNLADGVPSRFSGSGSGTQYSLKINSLQSEDFGSYYCQHFWGTPPWTFGGGTKLEIK" endpoint="% Max blocking at 11nM mAb" meas_value=48
binder="mouse monoclonal antibody 8H24 (antibody, mouse IgG2c, V domains shown, mouse IgG2c, kappa; also called mu8H24; m8H24) VH: QAYLQQSGTELVRPGASVKMSCKASGYTFTSYSMHWVKQTPRQGLEWIGAIYPGNDATSYNQKFKGKATLTVDKSSSTAYMQLSSLTSEDSAVYFCAREGYYGSSFEAWFASWGQGTLVTVSA VL: DVLMTQTPLSLPVSLGDQASISCRSSQSIVHSNGNTYLEWYLQKPGQSPKLLIYKVSNRFSGVPDRFSGSGSGTDFTLKISRVEAEDLGVYYCFQGSHVLPTFGGGTKLEIK" endpoint="% Max blocking at 11nM mAb" meas_value=66
binder="mouse monoclonal antibody 6B15 (antibody, mouse IgG1, V domains shown, mouse IgG1, kappa) VH: EVQLVESGGDLVKPGGSLKLSCAAPGFTFSTYGMSWVRQTPDKRLEWVAIISSGGSYTYYSDTVKGRFTISRDNAKNTLNLQMSSLKSEDTAMYFCSRSSSHWYFDVWGTGTTVTVSS VL: DILMTQFPSSMSVSLGDTVSITCHASQGISSNIGWLQQKPGKSFKGLIYHGTNLKDGVPSRFSGSGSGTDFSLTISSLESEDFADYYCVQYAQFPYTFGGGTKLEKR" endpoint="% Max blocking at 11nM mAb" meas_value=33
